Items are presented alongside their recorded MIC.
# Test system: Proteus morganii (D.S.)
# experiment_summary: MIC in broth, Gram- strains
# Assay type: cell-based
# run_conditions: Morganella morganii, 18 h, read-out: Minimal Inhibitory Concentration (MIC)

# molecule, MIC
data = [
    ("CCCCCCCCCCCOC(=O)CC(C[N+](C)(C)C)OC(=O)CCCCCC (stereo not shown)", "> 100 µg/mL"),
    ("CCCCCCCCCCCCOC(=O)CC(C[N+](C)(C)C)OC(=O)C(C)C (stereo not shown)", "100 µg/mL"),
    ("CCCCCCCCCCCOC(=O)CC(C[N+](C)(C)C)OC(=O)CCC(C)C (stereo not shown)", "100 µg/mL"),
    ("CCCCCCCCCCCOC(=O)CC(C[N+](C)(C)C)OC(=O)CC(C)C (stereo not shown)", "100 µg/mL"),
]

// provenance: patent US5498632A
